Consider the following compounds; for each one, report its melting point.

What value of melting point has been recorded for this entry: NS(=O)(=O)c1ccc(S(=O)(=O)CC(O)CO)cc1 (stereo not given)
140 to 147 °C

What value of melting point has been recorded for this entry: `Cc1nc(-c2ccc(N3CCN(C)CC3)c([N+](=O)[O-])c2)sc1C(=O)O`
218 to 220 °C

What value of melting point has been recorded for this entry: `Cc1ccc(-c2ccccc2C(=O)NN)cc1`
98 to 99 °C

What value of melting point has been recorded for this entry: `CCOC(=O)Nn1cccc1`
60 to 61 °C

What value of melting point has been recorded for this entry: `CC1=C(C(=O)OC(C)(C)C)C(c2ccc(Br)cc2F)C(C(=O)OC(C)(C)C)=C(C)N1`
187 to 188 °C

What value of melting point has been recorded for this entry: Fc1ccc(Cn2c(NC3CCN(CCc4ccccc4)C3)nc3ccccc32)cc1 (stereo not given)
126 °C

What value of melting point has been recorded for this entry: `OCc1ccc(-c2ccccc2-c2nnn[nH]2)cc1`
132 to 135 °C

What value of melting point has been recorded for this entry: `O=C(Nc1cc(-n2cccn2)nc(-c2ccco2)n1)OCc1cccnc1`
254 to 256 °C

What value of melting point has been recorded for this entry: `COC=C(C(=O)OC)N(C)c1ncnc(-c2ccccc2)n1`
98 to 101 °C

What value of melting point has been recorded for this entry: `CCOC(=O)C1=C(C)NC(C)=C(C(=O)OCC)C1c1c(Cl)cccc1Cl`
134 to 135 °C

----------
outcome measure: melting point

What value of melting point has been recorded for this entry: `COc1ccc(C)cc1NC(=O)Nc1ccc(N2CCN(C(=O)Nc3ccc(CO)cc3Cl)CC2)cc1`
152 to 155 °C

What value of melting point has been recorded for this entry: COc1cc(OC)c2c(=O)cc(-c3ccccc3Cl)oc2c1C1CCN(C)C1C(=O)O (stereo not given)
165 to 167 °C

What value of melting point has been recorded for this entry: `CC(C)(OC(=O)Cc1cccc(F)c1)C(=O)c1ccc(S(C)(=O)=O)cc1`
173 °C

What value of melting point has been recorded for this entry: NN(c1ccccc1)C1CCS(=O)(=O)C1 (stereo not given)
120 to 121 °C

What value of melting point has been recorded for this entry: CCC(Cl)C(=O)NCCSc1nc(C(C)(C)C)n[nH]1 (stereo not given)
68 to 70 °C

What value of melting point has been recorded for this entry: `Cc1ccc(-c2cc(O)c3[nH]c(=O)ccc3c2)c(C)n1`
276 to 277 °C

What value of melting point has been recorded for this entry: `CCCN1CC(c2ccc(S(C)(=O)=O)cc2)=C(c2ccc(F)cc2)C1=O`
120 to 121 °C

What value of melting point has been recorded for this entry: CCN1C(=O)C(C(=O)Nc2ccc(F)cc2)c2cc3c(cc21)C=CCO3 (stereo not given)
212 to 214 °C

What value of melting point has been recorded for this entry: `CCOC(=O)c1ccccc1NC(=O)CBr`
65 to 66 °C

What value of melting point has been recorded for this entry: `CCOC1(OCC)CCC(C#N)(CC#N)CC1`
74 to 75 °C

What value of melting point has been recorded for this entry: `Cc1nc(CN2CCc3sc(Nc4ncc(F)cn4)nc3-c3c[nH]nc32)no1`
245 °C

What value of melting point has been recorded for this entry: CCCOc1nc(N)c2ncn(C3C=CCCC3)c2n1 (stereo not given)
157 to 159 °C

What value of melting point has been recorded for this entry: `Cc1cc(C)c2nc(NCCC(N)=O)n(Cc3nc(C)ccc3O)c2c1`
229 °C

What value of melting point has been recorded for this entry: `CCc1nc2c(N)nc3c(c2n1CCCCS(=O)(=O)NC)CCCC3`
166 to 170 °C

What value of melting point has been recorded for this entry: `Nc1cc(O)c(Cn2nc(-c3ccc(C(F)(F)F)cc3)oc2=O)cc1Cl`
210 to 212 °C

What value of melting point has been recorded for this entry: CCCc1c(OCC(O)COc2cccc(NC(=O)c3nnn[nH]3)c2C#N)ccc(C(C)=O)c1O (stereo not given)
117 to 119 °C

What value of melting point has been recorded for this entry: `CNC(=O)c1cc(C(=O)OC)cc(C(=O)NC)n1`
202 to 203 °C

What value of melting point has been recorded for this entry: `C=C(Cl)CC(C#N)(C#N)Cc1ccc(Cl)cc1`
85.5 °C

What value of melting point has been recorded for this entry: CCC(=O)NCCC1CCc2ccc3c(c21)NC(=O)CO3 (stereo not given)
216 to 219 °C

What value of melting point has been recorded for this entry: `CC(C)CNC(=O)/C=C/C=C/CCCCCCOCc1cccc(C(F)(F)F)c1`
48 to 50 °C

What value of melting point has been recorded for this entry: `CC(=O)NC(C)(C)c1ccc(-c2nc(Nc3ccc(F)cc3)ncc2C#N)cc1`
212 to 216 °C

What value of melting point has been recorded for this entry: `NC(=O)Cn1c(=O)c2ncn3c2n(c1=O)CC=C3c1cccc(C(F)(F)F)c1`
283 to 285 °C

What value of melting point has been recorded for this entry: `Cc1cc(Cn2cc(C3c4ccccc4C=Cc4ccccc43)c(=S)[nH]c2=O)cc(C(=O)O)c1`
> 240 °C

What value of melting point has been recorded for this entry: `CN(C)C=CC(=O)c1ccncc1`
114 to 116 °C

What value of melting point has been recorded for this entry: COc1ccc2c(c1)C(C(=O)N(Cc1ccc(Br)cc1)c1ccc(C(C)C)cc1)CCC2 (stereo not given)
85 °C

What value of melting point has been recorded for this entry: `CCOC(=O)c1cn(C)c2cc(Br)ccc2c1=O`
189 to 191 °C

What value of melting point has been recorded for this entry: `COc1ccc2ccccc2c1-c1cc2c(c(-c3ccccc3)c1P(=O)(c1ccccc1)c1ccccc1)COC2`
129 to 131 °C

What value of melting point has been recorded for this entry: Cc1ccc(C(Cn2ccnc2)C(=O)c2ccc(Cl)cc2Cl)cc1 (stereo not given)
92 to 96 °C

What value of melting point has been recorded for this entry: N=C(N)N(CCCC(C=O)NC(=O)CNC(=O)CCc1ccccc1)C(=O)OCc1ccccc1 (stereo not given)
69 to 74 °C

What value of melting point has been recorded for this entry: `O=C(O)Cc1cc(Cl)ccc1Oc1ccccc1`
119 to 123 °C

What value of melting point has been recorded for this entry: `COC(=O)COc1cccc2c1cc(C)n2Cc1cccc(-c2ccccc2)c1`
99 to 102 °C

What value of melting point has been recorded for this entry: `CNC(=O)Cc1ccc(CC(=O)O)cc1`
102 to 104 °C

What value of melting point has been recorded for this entry: `COc1cc(Cc2cnc(NCCSCc3nccs3)[nH]c2=O)ccn1`
106 °C

What value of melting point has been recorded for this entry: `COc1cccc(CC(=O)O)c1OCCCc1cn(-c2ccc(C(F)(F)F)cn2)nc1C(C)C`
142 to 143 °C

What value of melting point has been recorded for this entry: `CCCCCCCNC(=O)Nc1ccccc1C(=O)NCC1CCN(C(c2ccccc2)c2ccccc2)CC1`
146 to 148 °C

What value of melting point has been recorded for this entry: CC(=O)N1CCc2cc(CC(C)N)cc(C#N)c21 (stereo not given)
94 to 96 °C

What value of melting point has been recorded for this entry: N#Cc1cc(C#N)c(SC2SCC(O)C(O)C2O)c(C#N)c1 (stereo not given)
86 to 96 °C

What value of melting point has been recorded for this entry: CC(=O)SCC(Cc1ccccc1)C(=O)Nc1ccc(N2CCCC2)c(C(=O)O)c1 (stereo not given)
176 to 178 °C

What value of melting point has been recorded for this entry: `Cc1cccc(C)c1OC(=O)[C@H](C)[C@@H](O)C(C)C`
58.5 to 59.5 °C

What value of melting point has been recorded for this entry: `CN(C)CCCn1cc(Br)c2c3c(c(-c4ccccc4Cl)cc21)C(=O)NC3=O`
160 to 162 °C

----------
outcome measure: melting point

What value of melting point has been recorded for this entry: Cc1ccc(NC(=O)C(CC2CCCC2)c2ccc(S(C)(=O)=O)cc2)nc1 (centres undefined)
82 to 85 °C

What value of melting point has been recorded for this entry: COCCOCc1c(CN(C)CC(O)c2ccccn2)sc2c(=O)c(C(=O)NCc3ccc(Cl)cc3)cn(C)c12 (centres undefined)
150 to 152 °C

What value of melting point has been recorded for this entry: `CC(C)(C)c1nc(C=C2SC(=S)N(N)C2=O)nc(C(C)(C)C)c1O`
194 to 196 °C

What value of melting point has been recorded for this entry: `Cc1sc2ncc(CO)n2c1C`
166 to 167 °C

What value of melting point has been recorded for this entry: `CCCCCn1c2ccccc2c2cc(C(=O)OCC)ncc21`
92 to 93 °C

What value of melting point has been recorded for this entry: `CCN(CCCCC1CCN(C(c2ccccc2)c2ccccc2)CC1)C(=O)C=Cc1cccnc1`
115 to 117 °C

What value of melting point has been recorded for this entry: `O=C1c2ncccc2C(=O)c2c(-c3ccccc3NC(=O)C(F)(F)F)ccnc21`
205 °C

What value of melting point has been recorded for this entry: `Cc1cc(C)c(Nc2nc(C)ccc2S(=O)(=O)c2ccc(F)c(Cl)c2)c(C)c1`
139 to 141 °C

What value of melting point has been recorded for this entry: `CCCOc1cccc(CCOc2ccc3c(c2)C=C(C(=O)Nc2ccc(CN(C)C4CCOCC4)cc2)CCS3(=O)=O)c1`
153 to 154 °C
